Values compiled from patent US20180016324A1.

Target: T1, ZIKV (prM80E) with a C-terminal myc-myc-hexahistidine tag (Zika virus, UniProt A0A024B7W1 104-694)
T1 construct: also called ZIKV (prM80E)-mmH; ZIKV-mmH
Assay: SPR, mAb captured, 37C
Reported t½ pH 7.4/t½ pH 6.0 values for a set of binders

Binder	t½ pH 7.4/t½ pH 6.0
H4H25710N (antibody, V domains shown) VH: EVQLLESGGGLVQPGGSLRLSCAASGFTVSNNYMSWVRQAPGKGLEWVSVIYSGGRTNYGDSVKGRFTISRDNSKNTLYLQMNSLRAEDTAVYYCARENYDFWSGDPYGWDVWGQGTTVTVSS VL: DIQMTQSPSSLSASVGDRVTITCRASQDISNYLAWFQQKPGKAPKSLIYGASSLQRGVPSKFRGSGSGTDFTLTISSLQPEDFASYYCQQYNSYPYTFGQGTKLEIK	24
H4H25587P (antibody, V domains shown) VH: EVQLVESGGGLVQPGRSLTLSCAASGFTFDDYVMHWVRQAPGKGLEWVSGISWNSDTIDYADSVKGRFTISRDNAKNSLYLQMNSLRAEDTALYYCAKDRRSWYGGYFDYWGQGTLVTVSS VL: DIQMTQSPSSLSASVGDRVTITCRASQGISSYLAWYQQKPGKVPKLLIYAASTLQSGVPSRFSGSGSGTDFSLTISSLQPEDVATYYCQKYNSAPLTFGGGTKVEIK	0.8
H4H25602P (antibody, V domains shown) VH: EVQLVESGGGLVQPGGSLRLSCAASGFTVSSNYMSWVRQAPGSGLEWVSVIYSGGITHYVDSVKGRFTISRHNSKNTLYLQMNSLRAEDTAMYYCARERYSGITGNPYGFDIWGQGTMVTVSS VL: DIQLTQSPSFLSASVGDRVTITCWASQDISSYLAWYQQKPGIAPKLLIYAASTLQSGVPSRFSGSGSGTEFTLTISSLQPEDFATYYCQQLNIYPFTFGPGTKVDIK	34.1
